Reference source: ChEMBL document CHEMBL1201862

A collection of compounds and their measured GI50
system: EKVX; assay: NCI tumour cell line growth inhibition, 48 h
Calls of active or inactive are those of the source. Rule as the data show it: active = GI50 up to about 1.1 µM and inactive = higher.
quantity-kind: GI50

CC(C)C1NC(=O)[C@H](C)OC(=O)[C@@H](C(C)C)NC(=O)[C@@H](C)OC(=O)C(C(C)C)NC(=O)[C@H](C)OC1=O (stereo not given in full)	> 100 µM (inactive)
CC(=O)Nc1ccc(N2C(=O)/C(=C\c3cccc(Oc4ccccc4)c3)S(=O)(=O)C2c2ccccc2)cc1 (stereo not given)	> 100 µM (inactive)
Cc1nn(CN2CCN(C)CC2)c(=S)n1/N=C/c1ccc(-c2ccc(Cl)cc2Cl)o1	14.8 µM (inactive)
Cc1cc(C)n(CN(Cn2nc(C)cc2C)C2CCCCC2)n1	31.8 µM (inactive)
CCCCCCc1ccc(C(=O)NO)cc1	37.8 µM (inactive)
